Where do these numbers come from? They come from patent US12371454B2.

Entries and their IC50 values follow.
biological target: Kras and SOS1 (biotin-tagged human Kras loaded with GDP, His-tagged human SOS1) (Homo sapiens, UniProt P01116, G12D); construct: made in house; host or cells: E. coli (stated for Kras only); assay: Protein-protein interaction inhibition between Kras and SOS1 (KrasGl2D-SOS PPI) using AlphaScreen; assay type: binding; settings: AlphaScreen; biotin-tagged human Kras loaded with GDP, His-tagged human SOS1; read-out: KRAS G12D-SOS PPI IC50
Sequence (P01116 1-188 isoform P01116-2 G12D): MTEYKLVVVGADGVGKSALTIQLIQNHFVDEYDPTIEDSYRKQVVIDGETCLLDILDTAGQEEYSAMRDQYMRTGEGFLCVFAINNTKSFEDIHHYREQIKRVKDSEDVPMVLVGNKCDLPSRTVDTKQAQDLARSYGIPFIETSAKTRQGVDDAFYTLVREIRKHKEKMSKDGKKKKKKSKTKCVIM
Positions of bridges follow the written chain, without caps; N, C: chain ends. Non-standard residues stand in square brackets, D forms with d. Residues, ends and D or L forms follow the SMILES beside them. *: point of attachment. hPhe(3-Cl-4-CF3) = N[C@@H](CCc1ccc(C(F)(F)F)c(Cl)c1)C(=O)O; NMePhe(4-CN) = CN[C@@H](Cc1ccc(C#N)cc1)C(=O)O; Ala(cPent) = N[C@@H](CC1CCCC1)C(=O)O; NMeCha = CN[C@@H](CC1CCCCC1)C(=O)O; NMeD = CN[C@@H](CC(=O)O)C(=O)O; NMeL = CN[C@@H](CC(C)C)C(=O)O; NMeV = CN[C@H](C(=O)O)C(C)C; d(β3hA) = C[C@@H](N)CC(=O)O; Piperidide = C1CCN(*)CC1; Ac5c = NC1(C(=O)O)CCCC1; Sar = CNCC(=O)O
Use nM as the unit, but write only the number.

Past entries and their recorded results:
CC[C@H](C)[C@@H]1NC(=O)[C@H](CC(C)C)N(C)C(=O)C[C@@H](C(=O)N2CCCCC2)N(C)C(=O)[C@H](C(C)C)N(C)C(=O)C2(CCCC2)NC(=O)[C@@H]2CCCN2C(=O)[C@H](CCc2ccc(C(F)(F)F)c(Cl)c2)NC(=O)CN(C)C(=O)[C@H](CC2CCCCC2)N(C)C(=O)CN(C)C(=O)CN(C)C1=O [Compound 438] ([NMeL]I[Sar][Sar][NMeCha][Sar][hPhe(3-Cl-4-CF3)]P[Ac5c][NMeV][NMeD]-Piperidide; lactam N-11) : 6
CC(C)C[C@H]1C(=O)N[C@@H](CC2CCCC2)C(=O)N(C)CC(=O)N(C)CC(=O)N(C)[C@@H](CC2CCCCC2)C(=O)N(C)CC(=O)N[C@@H](CCc2ccc(C(F)(F)F)c(Cl)c2)C(=O)N2CCC[C@H]2C(=O)NC2(CCCC2)C(=O)N(C)[C@@H](C(C)C)C(=O)N(C)[C@H](C(=O)N2CCCCC2)CC(=O)N1C [Compound 627] ([NMeL][Ala(cPent)][Sar][Sar][NMeCha][Sar][hPhe(3-Cl-4-CF3)]P[Ac5c][NMeV][NMeD]-Piperidide; lactam N-11) : 13

**Q:** Returns the measured IC50 for the input compound. Input: CC[C@H](C)[C@@H]1NC(=O)[C@H](CC(C)C)N(C)C(=O)C[C@@H](C)NC(=O)[C@H](C(C)C)N(C)C(=O)C2(CCCC2)NC(=O)[C@@H]2CCCN2C(=O)[C@H](CCc2ccc(C(F)(F)F)c(Cl)c2)NC(=O)CN(C)C(=O)[C@H](Cc2ccc(C#N)cc2)N(C)C(=O)CN(C)C(=O)CN(C)C1=O [Compound 564] (cyclo([Ac5c][NMeV][d(β3hA)][NMeL]I[Sar][Sar][NMePhe(4-CN)][Sar][hPhe(3-Cl-4-CF3)]P))
**A:** 9.6
